- Assay Target: HDAC6 (Homo sapiens)
- Construct: Full length human recombinant HDAC6 protein was expressed in baculoviral system
- Sequence (Q9UBN7 whole entry): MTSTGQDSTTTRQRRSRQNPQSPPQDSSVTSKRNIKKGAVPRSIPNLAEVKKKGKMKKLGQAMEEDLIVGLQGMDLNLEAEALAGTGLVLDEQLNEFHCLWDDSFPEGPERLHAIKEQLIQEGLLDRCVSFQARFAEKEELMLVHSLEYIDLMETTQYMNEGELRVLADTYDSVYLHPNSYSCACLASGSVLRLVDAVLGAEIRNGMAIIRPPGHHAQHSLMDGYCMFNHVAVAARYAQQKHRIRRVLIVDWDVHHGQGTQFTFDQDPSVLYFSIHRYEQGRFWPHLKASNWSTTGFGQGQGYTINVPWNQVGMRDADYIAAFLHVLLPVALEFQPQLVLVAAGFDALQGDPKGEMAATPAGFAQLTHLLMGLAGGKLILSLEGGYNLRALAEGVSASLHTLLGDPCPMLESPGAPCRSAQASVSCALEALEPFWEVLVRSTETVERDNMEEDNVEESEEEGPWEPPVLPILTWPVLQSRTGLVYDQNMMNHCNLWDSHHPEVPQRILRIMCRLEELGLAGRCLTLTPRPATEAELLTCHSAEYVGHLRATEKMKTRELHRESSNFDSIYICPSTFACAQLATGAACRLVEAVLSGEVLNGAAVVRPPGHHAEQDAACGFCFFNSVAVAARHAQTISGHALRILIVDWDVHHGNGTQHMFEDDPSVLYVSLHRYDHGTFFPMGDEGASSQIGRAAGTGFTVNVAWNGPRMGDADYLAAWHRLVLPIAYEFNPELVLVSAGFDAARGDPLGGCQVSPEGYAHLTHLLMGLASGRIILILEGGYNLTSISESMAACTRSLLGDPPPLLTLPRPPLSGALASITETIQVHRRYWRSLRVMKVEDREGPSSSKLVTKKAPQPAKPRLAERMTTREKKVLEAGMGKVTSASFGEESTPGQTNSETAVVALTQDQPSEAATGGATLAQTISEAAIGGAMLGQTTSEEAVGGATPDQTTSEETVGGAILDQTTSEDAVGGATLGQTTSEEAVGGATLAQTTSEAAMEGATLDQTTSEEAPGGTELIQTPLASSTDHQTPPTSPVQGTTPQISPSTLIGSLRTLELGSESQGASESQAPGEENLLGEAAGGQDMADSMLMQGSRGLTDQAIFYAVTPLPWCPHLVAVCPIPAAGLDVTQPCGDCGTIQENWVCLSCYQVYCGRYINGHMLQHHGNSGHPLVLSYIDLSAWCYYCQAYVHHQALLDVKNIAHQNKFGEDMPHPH
- Test: In vitro Histone Deacetylase Assay (enzymatic HDAC6 electrophoretic mobility shift assay)
- Reported Conditions: full length human recombinant HDAC6, 1 nM enzyme, 2 μM peptide substrate RHKK(Ac)-NH2, 25° C.; read-out: HDAC6 activity range
- Method: The enzymatic HDAC6 assay was performed using electrophoretic mobility shift assay. Full length human recombinant HDAC6 protein was expressed in baculoviral system and purified by affinity chromatography. […] The terminated assay plates were analyzed on LabChip® 3000 microfluidic electrophoresis instrument (Perkin Elmer/Caliper Life Sciences). The fluorescence intensity of the electrophoretically separated de-acetylated product and substrate peptide was measured. […]
pIC50: −log10 of the molar value.
Can you tell me pIC50 for the items I'm about to list?

Worked set:
molecule="O=C(NO)c1ccc2c(c1)CC[C@@]1(CCN(C3CCC3)C1=O)C2 (single isomer, unassigned)" parameter_measured=pIC50 val="≥ 7.00"
molecule="COc1ccc(CCN2CCC3(CCc4cc(C(=O)NO)ccc4C3)C2)cc1 (stereo not shown)" parameter_measured=pIC50 val="6.30 to 7.00"

List the reported pIC50 of each molecule below.
1. O=C(NO)c1ccc2c(c1)CCC1(CC(=O)N(CC(F)(F)F)C1)C2 (single isomer, unassigned) [Compound I-223]
2. O=C(NO)c1ccc2c(c1)CC[C@@]1(CCN(C3CCCC3)C1=O)C2

-- reply
["≥ 7.00", "6.30 to 7.00"]
